tested_system: VibE (Vibrio cholerae serotype O1, UniProt O07899)
Sequence (O07899 whole entry): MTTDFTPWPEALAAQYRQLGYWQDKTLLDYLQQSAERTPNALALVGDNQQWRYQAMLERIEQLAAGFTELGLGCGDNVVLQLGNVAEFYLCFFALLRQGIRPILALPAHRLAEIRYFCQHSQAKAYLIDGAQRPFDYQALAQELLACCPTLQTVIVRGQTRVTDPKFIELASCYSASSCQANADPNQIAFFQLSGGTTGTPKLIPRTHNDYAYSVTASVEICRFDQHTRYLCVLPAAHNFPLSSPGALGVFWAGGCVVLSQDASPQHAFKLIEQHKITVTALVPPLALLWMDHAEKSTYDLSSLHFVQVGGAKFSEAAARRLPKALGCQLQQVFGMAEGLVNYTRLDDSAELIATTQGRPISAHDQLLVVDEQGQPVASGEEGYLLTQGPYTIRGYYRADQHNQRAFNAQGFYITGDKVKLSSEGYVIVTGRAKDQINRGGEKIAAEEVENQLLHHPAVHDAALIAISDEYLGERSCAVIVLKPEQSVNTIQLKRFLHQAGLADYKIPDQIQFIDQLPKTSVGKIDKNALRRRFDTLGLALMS
protocol_text: biochemical
Assay type: binding
experimental_context: read-out: Calculated Ligand-Protein Dissociation Constant KD2
recorded_metric: pKd
Recall that pKd is obtained by taking minus log10 of the concentration measured in molar.

query: Return reported pKd; argument: Nc1ncnc2c1ncn2[C@@H]1O[C@H](COP(=O)(O)O)[C@@H](O)[C@H]1O [compound 22, adenosine monophosphate]
result: 4.92

* * *

tested_system: BasE (Acinetobacter baumannii, UniProt A0A0D5YGP3)
Sequence (A0A0D5YGP3 1-542): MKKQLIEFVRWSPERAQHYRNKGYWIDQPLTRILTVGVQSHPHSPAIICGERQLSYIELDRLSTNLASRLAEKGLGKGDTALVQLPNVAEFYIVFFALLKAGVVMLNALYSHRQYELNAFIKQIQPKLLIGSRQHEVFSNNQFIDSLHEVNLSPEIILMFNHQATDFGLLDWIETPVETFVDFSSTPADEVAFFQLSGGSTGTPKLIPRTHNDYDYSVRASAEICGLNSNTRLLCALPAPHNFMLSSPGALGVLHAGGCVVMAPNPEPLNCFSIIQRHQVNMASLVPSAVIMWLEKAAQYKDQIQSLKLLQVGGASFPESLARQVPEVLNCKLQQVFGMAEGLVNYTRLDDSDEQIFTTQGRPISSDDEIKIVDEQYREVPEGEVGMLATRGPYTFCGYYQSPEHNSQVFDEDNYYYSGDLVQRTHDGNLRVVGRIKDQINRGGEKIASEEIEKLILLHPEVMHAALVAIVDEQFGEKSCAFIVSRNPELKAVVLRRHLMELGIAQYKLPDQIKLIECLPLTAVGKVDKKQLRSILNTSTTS
protocol_text: biochemical
Format: binding
experimental_context: read-out: Calculated Ligand-Protein Dissociation Constant KD2
recorded_metric: pKd
Recall that pKd is obtained by taking minus log10 of the concentration measured in molar.

query: Return reported pKd; argument: Nc1ncnc2c1ncn2[C@@H]1O[C@H](COP(=O)(O)O)[C@@H](O)[C@H]1O [compound 22, adenosine monophosphate]
result: 3.76
